protocol_notes: Time-dependent absorption/fluorescence CLB cleavage profiles of XCy-CLB and OCTA-G-XCy-CLB in PB and cell medium
Type: in vitro ADME
condition: phosphate buffer; in PB pH 7.4; read-out: CLB release half-life τ1/2 (converted)
attribute_measured: half-life

# lookup: half-life of CC1(C)C(/C=C/C2=C3Oc4cc(OC(=O)CCCc5ccc(N(CCCl)CCCl)cc5)ccc4C=C3CCC2)=[N+](CCCCCC(=O)O)c2ccccc21
~8 h
